target: IKZF2 (Homo sapiens (Human), UniProt Q96SW2+Q9UKS7); experiment: In vitro IKZF2 FACS Assay in Jurkat cells; assay type: cell-based; details: 24 hrs, half maximal degradation concentration
Sequence (Q9UKS7 whole entry, one chain of several): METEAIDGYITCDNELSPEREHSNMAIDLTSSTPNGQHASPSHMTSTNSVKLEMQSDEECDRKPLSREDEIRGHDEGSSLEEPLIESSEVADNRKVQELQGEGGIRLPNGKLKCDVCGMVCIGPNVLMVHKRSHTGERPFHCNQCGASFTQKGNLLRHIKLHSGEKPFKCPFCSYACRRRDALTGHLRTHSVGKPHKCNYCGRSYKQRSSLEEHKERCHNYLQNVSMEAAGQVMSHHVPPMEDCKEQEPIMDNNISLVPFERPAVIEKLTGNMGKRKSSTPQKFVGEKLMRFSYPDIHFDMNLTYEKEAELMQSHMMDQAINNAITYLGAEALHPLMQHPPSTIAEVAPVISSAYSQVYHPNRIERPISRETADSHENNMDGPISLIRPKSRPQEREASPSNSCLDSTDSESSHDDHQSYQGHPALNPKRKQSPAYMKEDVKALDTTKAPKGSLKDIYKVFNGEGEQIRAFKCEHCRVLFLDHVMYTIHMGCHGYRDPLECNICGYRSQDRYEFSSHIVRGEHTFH
Please go through the items and note down their DC50.

INSERT INTO assay_data (molecule, readout, result) VALUES
  ('CN1CC(n2ncc3c(CN4CCCC4)cc(-c4ccc5c(c4)CN(C4CCC(=O)NC4=O)C5=O)nc32)C1 (stereo not shown) [Example 261]', 'DC50', '1 to 10 nM'),
  ('O=C1CCC(N2Cc3cc(-c4cc(CN5CCC(O)CC5)c5ccn(C6COC6)c5n4)ccc3C2=O)C(=O)N1 (stereo not shown) [Example 162]', 'DC50', '10 to 100 nM'),
  ('O=C1CCC(N2Cc3cc(-c4cc(CN5CCCC5)c5ccn(C6CC6)c5n4)ccc3C2=O)C(=O)N1 (stereo not shown) [Example 119]', 'DC50', '1 to 10 nM'),
  ('Cn1ccc2c(CN3CCC3)cc(-c3ccc4c(c3)CN(C3CCC(=O)NC3=O)C4=O)nc21 (stereo not shown) [Example 56]', 'DC50', '1 to 10 nM'),
  ('O=C1CCC(N2Cc3cc(-c4cc(CN5CCCC5)c5nccc(OC(F)F)c5n4)ccc3C2=O)C(=O)N1 (stereo not shown) [Example 249]', 'DC50', '1 to 10 nM');

For each listed entry, give its DC50.
1. Cc1cc2c(CN3CCCC3)cc(-c3ccc4c(c3)CN(C3CCC(=O)NC3=O)C4=O)nc2n1C1COC1 (stereo not shown) [Example 275]
2. O=C1CCC(N2Cc3c(ccc(-c4nc5c(ccn5C5COC5)c(CN5CCCC5)c4Cl)c3F)C2=O)C(=O)N1 (stereo not shown) [Example 270]

1: 10 to 100 nM; 2: 1 to 10 nM

----------
Give DC50 for every item shown.
target: IKZF2 (Homo sapiens (Human), UniProt Q96SW2+Q9UKS7); assay: In vitro IKZF2 FACS Assay in Jurkat cells; type: cell-based; conditions: 24 hrs, half maximal degradation concentration

INSERT INTO results (compound, tested_system, result) VALUES
  ('CCNc1n[nH]c2c(CN3CCCC3)cc(-c3ccc4c(c3F)CN(C3CCC(=O)NC3=O)C4=O)nc12 (stereo not shown)', 'IKZF2 (Homo sapiens (Human), UniProt Q96SW2+Q9UKS7)', '< 1 nM'),
  ('O=C1CCC(N2Cc3cc(-c4nc(CN5CCCC5)c5cc[nH]c5n4)ccc3C2=O)C(=O)N1 (stereo not shown)', 'IKZF2 (Homo sapiens (Human), UniProt Q96SW2+Q9UKS7)', '10 to 100 nM'),
  ('Cn1ccc2c(CN3CCCC3)c(Cl)c(-c3ccc4c(c3F)CN(C3CCC(=O)NC3=O)C4=O)nc21 (stereo not shown)', 'IKZF2 (Homo sapiens (Human), UniProt Q96SW2+Q9UKS7)', '1 to 10 nM');

Let me know recorded DC50 for O=C1CCC(N2Cc3cc(-c4cc(CN5CCC(F)CC5)c5ccn(C6COC6)c5n4)ccc3C2=O)C(=O)N1 (stereo not shown) , thanks.
1 to 10 nM

----------
target: IKZF1 (Homo sapiens (Human), UniProt Q13422+Q96SW2); assay: In vitro IKZF1 HiBit Assay (HEK293T Flp-in-HiBiT-IKZF1 stable cell line); format: cell-based; conditions: HEK293T Flp-in-HiBiT-IKZF1 stable cell line, 6 hrs incubation; read-out: IKZF1 HiBit DC50
Sequence (Q13422 whole entry, one chain of several): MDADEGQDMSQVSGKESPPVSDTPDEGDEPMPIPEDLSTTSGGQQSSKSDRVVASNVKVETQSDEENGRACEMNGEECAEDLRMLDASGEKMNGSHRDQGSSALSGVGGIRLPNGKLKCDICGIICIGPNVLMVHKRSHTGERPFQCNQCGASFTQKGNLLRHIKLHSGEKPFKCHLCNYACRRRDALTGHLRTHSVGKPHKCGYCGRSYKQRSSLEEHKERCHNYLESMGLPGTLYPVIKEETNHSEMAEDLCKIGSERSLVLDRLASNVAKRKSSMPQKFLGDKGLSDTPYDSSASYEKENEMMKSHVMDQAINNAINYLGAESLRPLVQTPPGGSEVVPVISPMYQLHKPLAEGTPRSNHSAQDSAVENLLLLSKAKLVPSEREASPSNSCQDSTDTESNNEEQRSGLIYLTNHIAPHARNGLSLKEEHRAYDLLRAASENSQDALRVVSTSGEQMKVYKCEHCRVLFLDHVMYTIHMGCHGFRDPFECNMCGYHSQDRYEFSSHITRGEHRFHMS
readout: DC50

Example entries begin here.
INSERT INTO results (compound, readout, result) VALUES
  ('COCCn1ccc2c(CN3CCCC3)cc(-c3ccc4c(c3)CN(C3CCC(=O)NC3=O)C4=O)nc21 (centres unmarked)', 'DC50', '> 10000 nM'),
  ('CC(C)n1ccc2c(CN3CCCC3)cc(-c3ccc4c(c3)CN(C3CCC(=O)NC3=O)C4=O)nc21 (centres unmarked)', 'DC50', '> 10000 nM'),
  ('O=C1CCC(N2Cc3cc(-c4cc(CN5CCC(F)C5)c5ccn(C6CC6)c5n4)ccc3C2=O)C(=O)N1 (centres unmarked)', 'DC50', '> 10000 nM'),
  ('O=C1CCC(N2Cc3cc(-c4cc(CN5CCCC5)c5nccc(OC6COC6)c5n4)ccc3C2=O)C(=O)N1 (centres unmarked)', 'DC50', '> 10000 nM'),
  ('Cn1ncc2nc(-c3ccc4c(c3)CN(C3CCC(=O)NC3=O)C4=O)cc(CN3CCCC3)c21 (centres unmarked)', 'DC50', '> 10000 nM');

Field: DC50. Fill in for each record below.
1. CC(C)Nc1n[nH]c2c(CN3CCCC3)cc(-c3ccc4c(c3)C(C)N(C3CCC(=O)NC3=O)C4=O)nc12 (centres unmarked)
2. O=C1CCC(N2Cc3cc(-c4cc(CN5CCC(O)CC5)c5ccn(C6COC6)c5n4)ccc3C2=O)C(=O)N1 (centres unmarked)
3. Cn1ccc2c(CN3CC(O)C3)cc(-c3ccc4c(c3)CN(C3CCC(=O)NC3=O)C4=O)nc21 (centres unmarked)
4. Cn1ccc2c(CN3CCCC3)c(Cl)c(-c3ccc4c(c3F)CN(C3CCC(=O)NC3=O)C4=O)nc21 (centres unmarked)
5. Cn1ccc2c(CN3CC4COCC(C4)C3)cc(-c3ccc4c(c3)CN(C3CCC(=O)NC3=O)C4=O)nc21 (centres unmarked)
6. O=C1CCC(N2Cc3c(ccc(-c4cc(CN5CC6COCC6C5)c5ccn(C6CS(=O)(=O)C6)c5n4)c3F)C2=O)C(=O)N1 (centres unmarked)
7. O=C1CCC(N2Cc3cc(-c4cc(CN5CCCC5)c5ccn(C6CCOC6)c5n4)ccc3C2=O)C(=O)N1 (centres unmarked)

1: > 10000 nM; 2: 100 to 1000 nM; 3: 100 to 1000 nM; 4: > 10000 nM; 5: > 10000 nM; 6: 10 to 100 nM; 7: > 10000 nM

----------
target: IKZF1 (Homo sapiens (Human), UniProt Q13422+Q96SW2); test: In vitro IKZF1 HiBit Assay (HEK293T Flp-in-HiBiT-IKZF1 stable cell line); assay type: cell-based; settings: HEK293T Flp-in-HiBiT-IKZF1 stable cell line, 6 hrs incubation; read-out: IKZF1 HiBit DC50
readout: DC50

Example entries begin here.
INSERT INTO results (molecule, readout, result) VALUES
  ('Nc1n[nH]c2c(CN3CCC3)cc(-c3ccc4c(c3)CN(C3CCC(=O)NC3=O)C4=O)nc12 (stereo not shown) [Example 208]', 'DC50', '> 10000 nM'),
  ('COCC1CCCN1Cc1cc(-c2ccc3c(c2)CN(C2CCC(=O)NC2=O)C3=O)nc2c1ccn2C (stereo not shown) [Example 106]', 'DC50', '> 10000 nM'),
  ('CN(C)c1n[nH]c2c(CN3CCCC3)cc(-c3ccc4c(c3)CN(C3CCC(=O)NC3=O)C4=O)nc12 (stereo not shown) [Example 179]', 'DC50', '10 to 100 nM');

# batch: return DC50 for each of the 4 molecules below
1. Nc1[nH]nc2c(CN3CCCC3)cc(-c3ccc4c(c3F)CN(C3CCC(=O)NC3=O)C4=O)nc12 (stereo not shown) [Example 318]
2. O=C1CCC(N2Cc3c(ccc(-c4cc(CN5CCCC5)c5ccn(C6CS(=O)(=O)C6)c5n4)c3F)C2=O)C(=O)N1 (stereo not shown) [Example 222]
3. O=C1CCC(N2Cc3c(ccc(-c4cc(CN5CCCC5)c5cc[nH]c5n4)c3F)C2=O)C(=O)N1 (stereo not shown) [Example 126]
4. Cn1ccc2c(CN3CCCCCC3)cc(-c3ccc4c(c3)CN(C3CCC(=O)NC3=O)C4=O)nc21 (stereo not shown) [Example 302]

10 to 100 nM
10 to 100 nM
1 to 10 nM
1 to 10 nM

----------
Please provide measured pIC50 for the entries that follow.
molecular target: CRBN/DDB1 (Homo sapiens (Human), UniProt Q96SW2); test: IC50 measurements for binding to CRBN/DDB1 (HTRF); conditions: His tagged CRBN+DDB, Cy5-labeled Thalidomide probe, one hour
Sequence (Q96SW2 whole entry, species assumed): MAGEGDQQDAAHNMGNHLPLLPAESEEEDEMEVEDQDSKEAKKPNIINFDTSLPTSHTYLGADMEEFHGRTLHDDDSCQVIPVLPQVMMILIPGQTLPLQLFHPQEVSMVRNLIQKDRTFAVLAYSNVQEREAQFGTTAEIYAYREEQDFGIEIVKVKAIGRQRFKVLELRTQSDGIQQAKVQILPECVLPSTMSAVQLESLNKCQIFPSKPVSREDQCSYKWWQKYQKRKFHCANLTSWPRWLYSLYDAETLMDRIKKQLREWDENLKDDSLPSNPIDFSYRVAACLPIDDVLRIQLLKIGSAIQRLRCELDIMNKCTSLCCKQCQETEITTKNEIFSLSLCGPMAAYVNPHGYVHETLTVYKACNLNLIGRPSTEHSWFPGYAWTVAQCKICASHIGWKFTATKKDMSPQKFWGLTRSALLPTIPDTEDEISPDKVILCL
Sequence (Q16531 whole entry partner, species assumed): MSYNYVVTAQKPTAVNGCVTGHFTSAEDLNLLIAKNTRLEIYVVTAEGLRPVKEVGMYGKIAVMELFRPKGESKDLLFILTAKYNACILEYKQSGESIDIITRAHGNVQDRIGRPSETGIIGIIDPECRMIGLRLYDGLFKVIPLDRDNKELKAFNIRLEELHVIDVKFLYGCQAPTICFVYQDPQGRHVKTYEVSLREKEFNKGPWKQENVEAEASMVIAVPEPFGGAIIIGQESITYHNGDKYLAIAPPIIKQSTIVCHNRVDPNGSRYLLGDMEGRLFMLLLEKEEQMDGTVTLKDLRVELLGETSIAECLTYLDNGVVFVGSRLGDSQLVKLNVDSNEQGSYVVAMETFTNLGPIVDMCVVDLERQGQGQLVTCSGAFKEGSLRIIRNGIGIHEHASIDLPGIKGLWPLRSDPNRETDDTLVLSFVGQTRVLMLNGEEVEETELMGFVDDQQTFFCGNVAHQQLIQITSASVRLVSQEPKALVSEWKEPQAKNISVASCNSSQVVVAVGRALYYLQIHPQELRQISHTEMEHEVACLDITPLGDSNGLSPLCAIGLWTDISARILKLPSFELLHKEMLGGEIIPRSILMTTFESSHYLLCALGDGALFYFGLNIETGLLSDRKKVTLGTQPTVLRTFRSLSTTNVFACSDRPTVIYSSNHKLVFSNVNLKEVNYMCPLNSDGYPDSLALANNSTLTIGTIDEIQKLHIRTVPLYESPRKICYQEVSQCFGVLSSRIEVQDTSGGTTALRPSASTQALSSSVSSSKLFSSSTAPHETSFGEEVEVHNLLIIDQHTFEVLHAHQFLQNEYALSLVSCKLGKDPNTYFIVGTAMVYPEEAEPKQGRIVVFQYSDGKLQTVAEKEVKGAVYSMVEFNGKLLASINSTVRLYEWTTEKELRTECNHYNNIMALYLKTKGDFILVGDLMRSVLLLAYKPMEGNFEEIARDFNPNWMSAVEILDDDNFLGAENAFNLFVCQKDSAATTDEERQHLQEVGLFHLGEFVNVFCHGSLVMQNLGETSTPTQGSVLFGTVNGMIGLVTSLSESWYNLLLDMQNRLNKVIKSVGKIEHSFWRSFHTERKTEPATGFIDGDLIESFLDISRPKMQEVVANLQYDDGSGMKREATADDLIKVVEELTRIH
pIC50: −log10 of the molar value.

Consider the reported pIC50 for these compounds:
INSERT INTO results (compound, tested_system, readout, result) VALUES
  ('Nc1n[nH]c2c(CN3CC(F)C3)cc(-c3ccc4c(c3)CN(C3CCC(=O)NC3=O)C4=O)nc12 (centres unmarked)', 'CRBN/DDB1 (Homo sapiens (Human), UniProt Q96SW2)', 'pIC50', '6.30 to 7.00'),
  ('CC(NCc1cc(-c2ccc3c(c2)CN(C2CCC(=O)NC2=O)C3=O)n2cncc2c1)c1cccc(Cl)c1 (centres unmarked)', 'CRBN/DDB1 (Homo sapiens (Human), UniProt Q96SW2)', 'pIC50', '5.30 to 6.00'),
  ('Cn1ccc2c(CN3CC(O)C3)cc(-c3ccc4c(c3)CN(C3CCC(=O)NC3=O)C4=O)nc21 (centres unmarked)', 'CRBN/DDB1 (Homo sapiens (Human), UniProt Q96SW2)', 'pIC50', '6.30 to 7.00');

Here are 2 compounds. What values of pIC50 were reported for them?
1. O=C1CCC(N2Cc3cc(-c4nc(CN5CCCC5)c5ccn(C6COC6)c5n4)ccc3C2=O)C(=O)N1 (centres unmarked)
2. Cn1ccc2c(CN3CCC4(CCC4)CC3)cc(-c3ccc4c(c3)CN(C3CCC(=O)NC3=O)C4=O)nc21 (centres unmarked)

["6.00 to 6.30", "6.30 to 7.00"]

Hi there! I need pIC50 for each item below, if you can.
1. Nc1n[nH]c2c(CN3CC4COCC4C3)cc(-c3ccc4c(c3)CN(C3CCC(=O)NC3=O)C4=O)nc12 (centres unmarked)
2. CC1(C)CCN(Cc2cc(-c3ccc4c(c3)CN(C3CCC(=O)NC3=O)C4=O)c3nccn3c2)CC1 (centres unmarked)
3. Cn1ccc2c(CN3CC4CCC(C4)C3)cc(-c3ccc4c(c3)CN(C3CCC(=O)NC3=O)C4=O)nc21 (centres unmarked)
4. CN(C)C(=O)C1CCN(Cc2cc(-c3ccc4c(c3)CN(C3CCC(=O)NC3=O)C4=O)nc3c2ccn3C)CC1 (centres unmarked)

1. 6.30 to 7.00
2. 6.30 to 7.00
3. 6.30 to 7.00
4. > 7.00

Give pIC50 for each listed item.
1. Cn1ccc2c(Cn3ccnc3)cc(-c3ccc4c(c3)CN(C3CCC(=O)NC3=O)C4=O)nc21 (centres unmarked)
2. O=C1CCC(N2Cc3cc(-c4cc(CN5CCCC5)c5ccccc5n4)ccc3C2=O)C(=O)N1 (centres unmarked)
3. Cn1ccc2c(N3CCCC3)cc(-c3ccc4c(c3)CN(C3CCC(=O)NC3=O)C4=O)nc21 (centres unmarked)
4. O=C1CCC(N2Cc3cc(-c4cc(CNCCc5ccccc5C(F)(F)F)cn5ccnc45)ccc3C2=O)C(=O)N1 (centres unmarked)
5. COCC1CCN(Cc2cc(-c3ccc4c(c3)CN(C3CCC(=O)NC3=O)C4=O)nc3c2ccn3C)C1 (centres unmarked)
6. O=C1CCC(N2Cc3cc(-c4cc(CN5CCCC5)c5[nH]ncc5n4)ccc3C2=O)C(=O)N1 (centres unmarked)
7. COc1c(-c2cc(CN3CCCC3)cc3cncn23)ccc2c1CN(C1CCC(=O)NC1=O)C2=O (centres unmarked)
8. Cn1ccc2c(Cn3cnc4ccccc43)cc(-c3ccc4c(c3)CN(C3CCC(=O)NC3=O)C4=O)nc21 (centres unmarked)

1. 5.30 to 6.00
2. 6.00 to 6.30
3. 5.30 to 6.00
4. > 7.00
5. 6.30 to 7.00
6. 6.30 to 7.00
7. 6.30 to 7.00
8. > 7.00

Parameter requested: pIC50. Apply to each item below.
1. Nc1nn(C2CC2)c2c(CN3CCCC3)cc(-c3ccc4c(c3)CN(C3CCC(=O)NC3=O)C4=O)nc12 (centres unmarked)
2. Cn1ccc2c(CN3CCCCC3)cc(-c3ccc4c(c3)CN(C3CCC(=O)NC3=O)C4=O)nc21 (centres unmarked)
3. O=C1CCC(N2Cc3cc(-c4cc(CN5CCC(O)CC5)c5ccn(C6COC6)c5n4)ccc3C2=O)C(=O)N1 (centres unmarked)
4. Cn1ccc2c(CN3CC4(CCOCC4)C3)cc(-c3ccc4c(c3)CN(C3CCC(=O)NC3=O)C4=O)nc21 (centres unmarked)
5. O=C1CCC(N2Cc3cc(-c4cc(CN5CC(F)C5)c5ccn(C6CC6)c5n4)ccc3C2=O)C(=O)N1 (centres unmarked)

6.00 to 6.30
6.30 to 7.00
6.30 to 7.00
6.30 to 7.00
5.30 to 6.00

Entry source: patent US20250214991A1
